meta.source: patent US20180355043A1

SYSTEM_UNDER_TEST: T1, DR4G110: Human HLA-DRA1*01:02/DRB1*04:01 ECD with aggrecan peptide N1 (human)
T1 construct: also called DRB1*04:01 Aggrecan
PROTOCOL: MSD ECL; antigen coated; protocol of Example 3

{"columns": ["BINDER", "MEASURE_UNIT", "ECL signal"],
 "data": [
  ["DR4B98 (antibody, human IgG2, kappa, V domains shown, also called VH DR4H50 / VL PH9L3) VH: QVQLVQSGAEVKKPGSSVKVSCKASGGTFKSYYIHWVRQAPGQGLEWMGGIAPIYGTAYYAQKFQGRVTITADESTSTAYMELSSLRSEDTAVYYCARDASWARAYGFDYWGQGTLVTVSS VL: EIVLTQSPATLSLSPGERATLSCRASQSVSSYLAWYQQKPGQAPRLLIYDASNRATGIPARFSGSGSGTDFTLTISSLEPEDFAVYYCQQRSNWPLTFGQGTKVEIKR", "ECL", 283000],
  ["DR4B127 (antibody, human IgG2, kappa, V domains shown, also called VH DR4H7 / VL PH9L3) VH: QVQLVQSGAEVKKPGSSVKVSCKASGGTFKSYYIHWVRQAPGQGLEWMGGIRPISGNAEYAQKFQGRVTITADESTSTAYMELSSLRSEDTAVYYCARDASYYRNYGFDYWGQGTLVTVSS VL: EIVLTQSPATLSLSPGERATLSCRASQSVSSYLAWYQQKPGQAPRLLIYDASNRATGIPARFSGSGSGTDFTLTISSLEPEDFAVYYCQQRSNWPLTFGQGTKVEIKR", "ECL", 954000],
  ["DR4B4 (antibody, V domains shown, also called Lym-1 re-engineered as IgG2sigma) VH: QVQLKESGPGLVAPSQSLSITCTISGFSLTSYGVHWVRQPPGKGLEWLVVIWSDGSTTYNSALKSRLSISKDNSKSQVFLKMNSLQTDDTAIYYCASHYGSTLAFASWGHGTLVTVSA VL: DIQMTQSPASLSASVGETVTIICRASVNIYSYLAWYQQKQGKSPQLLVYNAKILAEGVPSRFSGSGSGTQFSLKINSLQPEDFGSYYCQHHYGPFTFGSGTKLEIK", "ECL", 112000],
  ["DR4B5 (antibody, V domains shown, also called apolizumab (1D10) re-engineered as IgG2sigma) VH: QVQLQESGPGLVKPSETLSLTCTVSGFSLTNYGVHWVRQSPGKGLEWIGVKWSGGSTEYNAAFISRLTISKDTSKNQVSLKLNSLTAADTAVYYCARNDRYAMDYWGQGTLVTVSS VL: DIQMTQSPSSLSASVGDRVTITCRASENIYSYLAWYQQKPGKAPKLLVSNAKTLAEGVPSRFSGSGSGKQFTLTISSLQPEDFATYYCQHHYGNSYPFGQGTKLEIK", "ECL", 8040]
]}
